Target: UBE2K
Test: reporter assay of Huesken 2005; further: test concentration or dose not given here
Conditions: siRNA
Oligonucleotides are given in HELM: sugar(base)linkage, 5' to 3'; d 2'-deoxyribose, r ribose, m 2'-O-methylribose, p phosphate. ss, as = sense and antisense strand
// reported normalised inhibition (eCFP-eYFP dual reporter) per item
Quantity measured: normalised inhibition (eCFP-eYFP dual reporter) (%)

INSERT INTO results (substance, value) VALUES
  ('RNA1{r(G)p.r(G)p.r(C)p.r(A)p.r(G)p.r(C)p.r(U)p.r(G)p.r(C)p.r(A)p.r(A)p.r(U)p.r(G)p.r(A)p.r(C)p.r(U)p.r(C)p.r(U)p.r(C)p.d(T)p.d(T)}|RNA2{r(G)p.r(A)p.r(G)p.r(A)p.r(G)p.r(U)p.r(C)p.r(A)p.r(U)p.r(U)p.r(G)p.r(C)p.r(A)p.r(G)p.r(C)p.r(U)p.r(G)p.r(C)p.r(C)p.d(C)p.d(A)}$$$RNA1{StrandType:ss}|RNA2{StrandType:as}$', 57.6),
  ('RNA1{r(G)p.r(A)p.r(U)p.r(C)p.r(C)p.r(A)p.r(C)p.r(A)p.r(G)p.r(G)p.r(A)p.r(U)p.r(G)p.r(C)p.r(U)p.r(G)p.r(U)p.r(A)p.r(G)p.d(T)p.d(T)}|RNA2{r(C)p.r(U)p.r(A)p.r(C)p.r(A)p.r(G)p.r(C)p.r(A)p.r(U)p.r(C)p.r(C)p.r(U)p.r(G)p.r(U)p.r(G)p.r(G)p.r(A)p.r(U)p.r(C)p.d(A)p.d(T)}$$$RNA1{StrandType:ss}|RNA2{StrandType:as}$', 67.6),
  ('RNA1{r(U)p.r(U)p.r(U)p.r(U)p.r(A)p.r(C)p.r(A)p.r(G)p.r(A)p.r(A)p.r(U)p.r(U)p.r(A)p.r(A)p.r(G)p.r(A)p.r(G)p.r(G)p.r(A)p.d(T)p.d(T)}|RNA2{r(U)p.r(C)p.r(C)p.r(U)p.r(C)p.r(U)p.r(U)p.r(A)p.r(A)p.r(U)p.r(U)p.r(C)p.r(U)p.r(G)p.r(U)p.r(A)p.r(A)p.r(A)p.r(A)p.d(T)p.d(T)}$$$RNA1{StrandType:ss}|RNA2{StrandType:as}$', 47.6);

---

Target: UBE2M
Assay: reporter assay of Huesken 2005
Settings: siRNA
Oligonucleotides are written 5' to 3', each unit as a sugar letter and its base; * is a phosphorothioate linkage, no mark a phosphodiester; rarer units and linkages stand in square brackets, end groups in braces. Plain capitals give the bases only. d = 2'-deoxy (DNA); r = 2'-OH (RNA)
Quantity measured: normalised inhibition (eCFP-eYFP dual reporter)

INSERT INTO assay_data (substance, experimental_target, value) VALUES
  ('sense rUrCrArUrCrUrGrUrCrCrUrGrArUrGrArGrGrGdTdT / antisense rCrCrCrUrCrArUrCrArGrGrArCrArGrArUrGrAdCdC', 'UBE2M', '57.5%'),
  ('sense rArGrCrUrGrArArCrCrUrGrCrCrCrArArGrArCdTdT / antisense rGrUrCrUrUrGrGrGrCrArGrGrUrUrCrArGrCrUdCdG', 'UBE2M', '71.8%'),
  ('sense rArArCrUrCrCrArUrArArUrUrUrArUrGrGrCrCdTdT / antisense rGrGrCrCrArUrArArArUrUrArUrGrGrArGrUrUdTdA', 'UBE2M', '49.7%');
